Tested on: corn (Zea mays)
Assay: Test C pre-/postemergence: corn
Type: in vivo
Settings: Preemergence, 125 g ai/ha; scale 0 to 100, 0 no effect, 100 complete control
Quick reference: Plant response rating, Corn of the listed items.
Recorded Metric: Plant response rating, Corn

smiles_notation=CCOc1nn(-c2ccc(F)cc2)nc1Cc1ccnc(C(F)F)c1 result_value=15
smiles_notation=Fc1ccc(-n2nc(Cc3ccnc(C(F)(F)F)c3)c(OCC(F)(F)F)n2)cc1 result_value=20
smiles_notation=CCOc1nn(-c2ccc(Br)cc2)nc1Cc1ccnc(C(F)(F)F)c1 result_value=20
smiles_notation=CCCc1nn(-c2ccc(F)cc2)nc1Cc1ccnc(C(F)(F)F)c1 result_value=25
smiles_notation=CCc1nn(-c2ccc(F)cc2)nc1Oc1ccnc(C(F)(F)F)c1 result_value=5

----------
Test system: foxtail, giant (giant foxtail, Setaria faberii)
Test: Test A pre-/postemergence: foxtail, giant
Format: in vivo
Settings: Preemergence, 500 g ai/ha; 0 to 100 scale (0 no effect, 100 complete control)
Text: Seeds of barnyardgrass (Echinochloa crus-galli), crabgrass, large (large crabgrass, Digitaria sanguinalis), foxtail, giant (giant foxtail, Setaria faberii), morningglory (Ipomoea spp.), pigweed (Amaranthus retroflexus), velvetleaf (Abutilon theophrasti), wheat (Triticum aestivum), and corn (Zea mays) were planted into a blend of loam soil and sand and treated preemergence with a directed soil spray using test chemicals formulated in a non-phytotoxic solvent mixture which included a surfactant. […]
Recorded Metric: Plant response rating, Foxtail, Giant

smiles_notation=Cc1nn(-c2ccc(C(F)(F)F)c(F)c2)nc1Cc1ccnc(C(F)(F)F)c1 recorded_metric="Plant response rating, Foxtail, Giant" result_value=100
smiles_notation=CCCc1nn(-c2ccc(F)cc2)nc1Cc1ccnc(C(F)(F)F)c1 recorded_metric="Plant response rating, Foxtail, Giant" result_value=100
smiles_notation=Fc1ccc(-n2nc(Cc3ccnc(C(F)(F)F)c3)c(OCC(F)(F)F)n2)cc1 recorded_metric="Plant response rating, Foxtail, Giant" result_value=100
smiles_notation=CC(C)(C)c1nn(-c2ccc(F)cc2)nc1C(=O)c1ccnc(C(F)(F)F)c1 recorded_metric="Plant response rating, Foxtail, Giant" result_value=0
smiles_notation=Cc1nn(-c2ccc(F)cc2)nc1Oc1cc(C(F)(F)F)ccn1 recorded_metric="Plant response rating, Foxtail, Giant" result_value=20

----------
Test system: velvetleaf (Abutilon theophrasti)
Assay: Test A pre-/postemergence: velvetleaf
Type: in vivo
Settings: Postemergence, 125 g ai/ha; 0 to 100 scale, 0 is no effect, 100 is complete control
Recorded Metric: Velvetleaf plant response rating

smiles_notation=Cc1nn(-c2ccc(F)cc2)nc1Oc1cc(C(F)(F)F)ccn1 measured_on="velvetleaf (Abutilon theophrasti)" result_value=20
smiles_notation=Cc1nn(-c2ccc(C(F)(F)F)cc2)nc1Oc1ccc(C(F)(F)F)cc1 measured_on="velvetleaf (Abutilon theophrasti)" result_value=0
smiles_notation=Cc1nn(-c2cccc(C(F)(F)F)n2)nc1C(=O)c1cccc(C(F)(F)F)c1 measured_on="velvetleaf (Abutilon theophrasti)" result_value=0
smiles_notation=Cc1cc(Oc2nn(-c3ccc(F)cc3)nc2C)ccc1F measured_on="velvetleaf (Abutilon theophrasti)" result_value=0
smiles_notation=Cc1nn(-c2ccccc2)nc1C(=O)c1cccc(C(F)(F)F)c1 measured_on="velvetleaf (Abutilon theophrasti)" result_value=20
smiles_notation=Cc1nn(-c2ccc(C(F)(F)F)cc2)nc1Cc1cnn(CC(F)(F)F)c1 measured_on="velvetleaf (Abutilon theophrasti)" result_value=0
smiles_notation=Cc1nn(-c2ccc(C(F)(F)F)cc2)nc1Oc1cnn(CC(F)(F)F)c1 measured_on="velvetleaf (Abutilon theophrasti)" result_value=0
smiles_notation=Cc1nn(-c2cccc(C(F)(F)F)c2)nc1Oc1ccnc(C(F)(F)F)c1 measured_on="velvetleaf (Abutilon theophrasti)" result_value=70
smiles_notation=Cc1nn(-c2ccc(C(F)(F)F)nc2)nc1C(=O)c1cccc(C(F)(F)F)c1 measured_on="velvetleaf (Abutilon theophrasti)" result_value=20
smiles_notation=Cc1nn(-c2ccc(I)cc2)nc1C(=O)c1cccc(C(F)(F)F)c1 measured_on="velvetleaf (Abutilon theophrasti)" result_value=10
smiles_notation=Cc1nn(-c2cnc(Cl)cn2)nc1C(=O)c1cccc(C(F)(F)F)c1 measured_on="velvetleaf (Abutilon theophrasti)" result_value=0

----------
System: foxtail, giant (giant foxtail, Setaria faberii)
Assay: Test A pre-/postemergence: foxtail, giant
Type: in vivo
Conditions: Postemergence, 500 g ai/ha; visual rating on 0 to 100 scale (0 no effect, 100 complete control), approximately ten days
Quick reference: Foxtail, Giant plant response rating of the listed items.
Recorded Metric: Foxtail, Giant plant response rating

smiles_notation=Cc1nn(-c2ccc(C(F)(F)F)c(F)c2)nc1Cc1ccnc(C(F)(F)F)c1 recorded_metric="Foxtail, Giant plant response rating" result_value=90
smiles_notation=Cc1nn(-c2cccc(C(F)(F)F)n2)nc1C(=O)c1cccc(C(F)(F)F)c1 recorded_metric="Foxtail, Giant plant response rating" result_value=0
smiles_notation=Cc1nn(-c2cccc(C(F)(F)F)c2)nc1Oc1ccnc(C(F)(F)F)c1 recorded_metric="Foxtail, Giant plant response rating" result_value=90
smiles_notation=Cc1nn(-c2ccc(C(F)(F)F)nc2)nc1C(=O)c1cccc(C(F)(F)F)c1 recorded_metric="Foxtail, Giant plant response rating" result_value=40
smiles_notation=Cc1nn(-c2ccnc(C(F)(F)F)c2)nc1Cc1ccnc(C(F)(F)F)c1 recorded_metric="Foxtail, Giant plant response rating" result_value=90
smiles_notation=Cc1nn(-c2ccc(Cl)cc2)nc1Oc1ccnc(C(F)(F)F)c1 recorded_metric="Foxtail, Giant plant response rating" result_value=100
smiles_notation=Cc1nn(-c2ccc(F)cc2)nc1Cn1cnc(C(F)(F)F)c1Cl recorded_metric="Foxtail, Giant plant response rating" result_value=0
smiles_notation=Cc1nn(-c2cccc(Cl)c2)nc1C(=O)c1cccc(C(F)(F)F)c1 recorded_metric="Foxtail, Giant plant response rating" result_value=20
smiles_notation=Cc1nn(-c2ccc(Br)cc2)nc1C(=O)c1cccc(C(F)(F)F)c1 recorded_metric="Foxtail, Giant plant response rating" result_value=20
smiles_notation=Cc1nn(-c2cccc(C(F)(F)F)c2)nc1Oc1cc(C(F)(F)F)ncn1 recorded_metric="Foxtail, Giant plant response rating" result_value=0
smiles_notation=O=C(c1ccnc(C(F)(F)F)c1)c1nn(-c2ccc(F)cc2)nc1F recorded_metric="Foxtail, Giant plant response rating" result_value=0
smiles_notation=Cc1nn(-c2cccc(I)c2)nc1C(=O)c1cccc(C(F)(F)F)c1 recorded_metric="Foxtail, Giant plant response rating" result_value=10
smiles_notation=COc1nn(-c2ccc(C(F)(F)F)cc2)nc1C(=O)c1ccnc(C(F)(F)F)c1 recorded_metric="Foxtail, Giant plant response rating" result_value=20
smiles_notation=Cc1nn(-c2ccc(F)c(F)c2)nc1Oc1ccnc(C(F)(F)F)c1 recorded_metric="Foxtail, Giant plant response rating" result_value=100
smiles_notation=Cc1nn(-c2ccnc(F)c2)nc1C(=O)c1cccc(C(F)(F)F)c1 recorded_metric="Foxtail, Giant plant response rating" result_value=90

----------
Tested on: large crabgrass (Digitaria sanguinalis)
Assay: Test C pre-/postemergence: large crabgrass
Type: in vivo
Conditions: Postemergence, 62 g ai/ha; scale 0 to 100 (0 no effect, 100 complete control)
Quick reference: Plant response rating, Crabgrass, Large of the listed items.
Recorded Metric: Plant response rating, Crabgrass, Large

smiles_notation=Cc1nn(-c2ccc(C(F)(F)F)cc2)nc1Cc1cccc(C(F)(F)F)c1 measured_on="large crabgrass (Digitaria sanguinalis)" recorded_metric="Plant response rating, Crabgrass, Large" result_value=40
smiles_notation=Cc1nn(-c2ccc(F)cc2)nc1Oc1ccnc(C(F)(F)F)c1 measured_on="large crabgrass (Digitaria sanguinalis)" recorded_metric="Plant response rating, Crabgrass, Large" result_value=45
smiles_notation=Cc1nn(-c2ccc(C(F)(F)F)cc2)nc1Cc1ccnc(C(F)(F)F)c1 measured_on="large crabgrass (Digitaria sanguinalis)" recorded_metric="Plant response rating, Crabgrass, Large" result_value=15
smiles_notation=CCCc1nn(-c2ccc(F)cc2)nc1Cc1ccnc(C(F)(F)F)c1 measured_on="large crabgrass (Digitaria sanguinalis)" recorded_metric="Plant response rating, Crabgrass, Large" result_value=55

----------
Test system: morningglory (Ipomoea spp.)
Test: Test A pre-/postemergence: morningglory
Format: in vivo
Settings: Postemergence, 500 g ai/ha; 0 to 100 scale, 0 is no effect, 100 is complete control
Quick reference: Morningglory plant response rating of the listed items.
Recorded Metric: Morningglory plant response rating

compound="CCc1nn(-c2ccc(F)cc2)nc1Oc1ccnc(C(F)(F)F)c1 [Compound 166]" recorded_metric="Morningglory plant response rating" result_value=100
compound="CCOc1nn(-c2ccc(Br)cc2)nc1Cc1ccnc(C(F)(F)F)c1 [Compound 189]" recorded_metric="Morningglory plant response rating" result_value=80
compound="CC(C)Cc1nn(-c2ccc(C(F)(F)F)cc2)nc1Oc1ccnc(C(F)F)c1 [Compound 187]" recorded_metric="Morningglory plant response rating" result_value=0
compound="COc1nn(-c2ccc(F)cc2F)nc1Cc1ccnc(C(F)(F)F)c1 [Compound 165]" recorded_metric="Morningglory plant response rating" result_value=80
compound="Cc1nn(-c2ccc(C(F)(F)F)cn2)nc1C(=NO)c1cccc(C(F)(F)F)c1 [Compound 201]" recorded_metric="Morningglory plant response rating" result_value=50

Data provenance: patent US9302999B2
